Target: Excitatory amino acid transporter 1 (Homo sapiens)
Sequence (P43003 whole entry): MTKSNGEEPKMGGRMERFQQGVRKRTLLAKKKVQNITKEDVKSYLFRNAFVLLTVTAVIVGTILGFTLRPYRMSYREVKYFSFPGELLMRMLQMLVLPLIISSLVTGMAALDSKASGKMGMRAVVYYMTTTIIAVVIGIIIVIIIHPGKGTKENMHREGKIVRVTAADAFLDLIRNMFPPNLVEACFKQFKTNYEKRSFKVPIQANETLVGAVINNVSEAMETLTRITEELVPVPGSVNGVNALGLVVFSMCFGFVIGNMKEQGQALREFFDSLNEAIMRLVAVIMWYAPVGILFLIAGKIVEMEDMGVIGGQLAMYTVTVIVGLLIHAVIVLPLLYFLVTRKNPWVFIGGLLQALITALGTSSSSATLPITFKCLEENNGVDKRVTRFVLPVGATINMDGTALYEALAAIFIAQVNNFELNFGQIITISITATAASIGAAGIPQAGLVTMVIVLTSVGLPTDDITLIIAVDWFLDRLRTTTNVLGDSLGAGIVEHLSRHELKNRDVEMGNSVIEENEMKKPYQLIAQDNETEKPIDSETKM
Assay: Displacement of [3H]D-Asp from human EAAT1 receptor expressed in HEK293 cells
experimental_readout: IC50 (µM)
Your answer is read as µM, so omit the unit and give the number.

Task item: I am curious: what IC50 value has been reported for COc1ccc(C2C(C#N)=C(N)OC3=C2C(=O)CC(c2ccccc2Cl)C3)cc1 (centres undefined) ?
Reply: 3.2

Task item: Any idea what IC50 was measured for N[C@@H](COS(=O)(=O)O)C(=O)O ?
Reply: 100

Task item: # lookup: IC50 of CSc1ccc(C2C(C#N)=C(N)OC3=C2C(=O)CC(c2ccccc2)C3)cc1 (centres undefined)
Reply: 2.7

Task item: Entry under review: N#CC1=C(N)OC2=C(C(=O)CC(c3ccccc3)C2)C1Cc1ccccc1 (centres undefined) . Reported IC50?
Reply: 30

Task item: Report IC50 for COc1ccc(C2C(C#N)=C(N)OC3=C2C(=O)CC(c2cccc4ccccc24)C3)cc1 (centres undefined) please.
Reply: 0.66

Task item: I am curious: what IC50 value has been reported for N#CC1=C(N)OC2=C(C(=O)CC(c3ccccc3)C2)C1c1ccccc1F (centres undefined) ?
Reply: 4.7

Task item: Find the recorded IC50 belonging to N#CC1=C(N)OC2=C(C(=O)CC(c3ccco3)C2)C1c1ccccc1 (centres undefined) and report it.
Reply: 7.3

Task item: Entry N#CC1=C(N)OC2=C(C(=O)CC(c3ccccc3)C2)C1c1cc(Br)cs1 (centres undefined) has what IC50?
Reply: 4.7

Task item: Any idea what IC50 was measured for N#CC1=C(N)OC2=C(C(=O)CC(c3ccccc3)C2)C1c1cccnc1 (centres undefined) ?
Reply: 30

Task item: For the compound shown here, N#CC1=C(N)OC2=C(C(=O)CC(c3ccccc3)C2)C1c1cccs1 (centres undefined) , give the reported IC50.
Reply: 14

Task item: Which measured IC50 value corresponds to N#CC1=C(N)OC2=C(C(=O)CC(c3ccccc3)C2)C1c1ccc2ccccc2c1 (centres undefined) ?
Reply: 3.6

Task item: Please give the measured IC50 for this compound: COc1cc(C2C(C#N)=C(N)OC3=C2C(=O)CC(c2ccccc2)C3)ccc1OCc1c(F)cccc1Cl (centres undefined)
Reply: 4.3

Task item: Which IC50 value belongs to N#CC1=C(N)OC2=C(C(=O)CC(c3ccccc3)C2)C1c1ccc2c(c1)OCO2 (centres undefined) ?
Reply: 4

Task item: Consider the compound N#CC1=C(N)OC2=C(C(=O)CC(c3ccccc3)C2)C1c1ccc(-c2ccccc2)cc1 (centres undefined) and give its measured IC50.
Reply: 2.1

Task item: Which measured IC50 value corresponds to COc1ccc(C2C(C#N)=C(N)OC3=C2C(=O)CC(c2ccco2)C3)cc1OC(=O)N1CCOCC1 (centres undefined) ?
Reply: 100

Task item: Requested read-out: IC50. Entry: N#CC1=C(N)OC2=C(C(=O)CC(c3cccs3)C2)C1c1ccc([N+](=O)[O-])cc1 (centres undefined)
Reply: 9.9

Task item: I would be grateful if you could share the reported IC50 for N#CC1=C(N)OC2=C(C(=O)CC(c3ccccc3)C2)C1c1cccc2ccccc12 (centres undefined) .
Reply: 7.4

Task item: Can you look up the measured IC50 of CC1C(C#N)=C(N)OC2=C1C(=O)CC(c1ccccc1)C2 (centres undefined) for me?
Reply: 9.2

Task item: Please report the recorded IC50 for N#CC1=C(N)OC2=C(C(=O)CC(c3ccccc3)C2)C1c1ccc([N+](=O)[O-])cc1 (centres undefined) .
Reply: 3.6
